FYI, the data here is from the supplement of paper PMC11208160.

- ASSAY PROTOCOL: recombinant barcode read abundance after kanamycin selection (control-corrected) (log10(CPM+1)); higher = more efficient recombination; sequences stand for … in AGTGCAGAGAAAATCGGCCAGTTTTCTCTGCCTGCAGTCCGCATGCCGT…ATTTATGCAGCGGACTGCCTTTCTCCCAAAGTGATAAACCGGACAGTATCATGGACCGGTTTTCCCGGTAATCCGTATTTGCAAGGTTGGTTTCACT; site = the 11-nt target
Below, each entry is listed with its recorded recombinant barcode read abundance (log10).
Form rule: numeric answer, no unit written next to it.

{"columns": ["MACROMOLECULE SEQUENCE", "OBSERVED"],
 "data": [
  ["GGGAGCCTATGGGTTCTAACCTGTTGCTGAG [GGGAGCCCTCA_LTGcore_TA_RTGcore_CT] (site GGGAGCCCTCA) (LTG core: TA, RTG core: CT)", 0.0839]
]}

Lab note: CGGTCCCCTTGGGTTCTAACCTGTTGCCATT [CGGTCCCCTTG_LTGcore_CT_RTGcore_AA] (site CGGTCCCCTTG) (LTG core: CT, RTG core: AA) gave recombinant barcode read abundance (log10) of 0.369

// recombinant barcode read abundance (log10) value for TGTATTCACTGGGTTCTAACCTGTTGCCTGT [TGTATTCCTAG_LTGcore_AC_RTGcore_AC] (site TGTATTCCTAG) (LTG core: AC, RTG core: AC) : 0.251

---

- ASSAY PROTOCOL: recombinant UMI read abundance after kanamycin selection (control-corrected) (log10(CPM+1)); higher = more efficient recombination; extreme values may be limits of the assay; sequences stand for … in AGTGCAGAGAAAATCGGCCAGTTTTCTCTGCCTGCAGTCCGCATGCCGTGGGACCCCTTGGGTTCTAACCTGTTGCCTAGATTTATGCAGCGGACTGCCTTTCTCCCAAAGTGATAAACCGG…AGGTTGGTTTCACT; site = the 11-nt donor
Could you label it yes if measured recombinant UMI read abundance (log10) is 0.2 or higher, and no otherwise?

{"columns": ["MACROMOLECULE SEQUENCE", "CLASSIFICATION"],
 "data": [
  ["ACCTAGACATGGACCGGTTTTCCCGGTAATCCGTATTTGGG (site ACTTAGACTCC)", "no"],
  ["CTCCCTACATGGACCGGTTTTCCCGGTAATCCGTATTTGGG (site CTCCCTACTCT)", "no"],
  ["AAAGGGCCATGGACCGGTTTTCCCGGTAATCCGTATTTGAG (site AAAGGGCCTCT)", "no"],
  ["CATAAAGCATGGACCGGTTTTCCCGGTAATCCGTATTTGAT (site CGTAAAGCTAT)", "no"],
  ["GTATGTTCATGGACCGGTTTTCCCGGTAATCCGTATTTGAG (site GTATGTTCTCT)", "yes"]
]}

# input Assess whether reported recombinant UMI read abundance (log10) for CGAGCACCATGGACCGGTTTTCCCGGTAATCCGTATTTGGG (site CGAGGACCTCC) sits at 0.2 or higher.
# output no

# input Decide: is the reported value of recombinant UMI read abundance (log10) for AGCCTTTCATGGACCGGTTTTCCCGGTAATCCGTATTTGAC (site AGACTTTCTGT) equal to or greater than 0.2?
# output no

---

Recorded recombinant UMI read abundance (log10) for the following sequences
- ASSAY PROTOCOL: recombinant UMI read abundance after kanamycin selection (control-corrected) (log10(CPM+1)); higher = more efficient recombination; extreme values may be limits of the assay; sequences stand for … in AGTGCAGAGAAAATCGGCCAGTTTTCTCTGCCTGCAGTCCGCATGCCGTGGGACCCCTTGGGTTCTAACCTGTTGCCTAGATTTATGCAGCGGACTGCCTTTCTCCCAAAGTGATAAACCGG…AGGTTGGTTTCACT; site = the 11-nt donor
Returns: the value as a bare number; no unit string appended.

{"columns": ["MACROMOLECULE SEQUENCE", "OBSERVED"],
 "data": [
  ["CGGATGACATGGACCGGTTTTCCCGGTAATCCGTATTTGAT (site CGGATGACTAT)", 2.14]
]}

recombinant UMI read abundance (log10) in this record for CAATTCCCATGGACCGGTTTTCCCGGTAATCCGTATTTGGT (site CAATTCCCTAG) : 0

Consider CGGAATCCATGGACCGGTTTTCCCGGTAATCCGTATTTGCT (site CGGAATCCTAC) . Its measured recombinant UMI read abundance (log10) is 0

The recorded recombinant UMI read abundance (log10) for TCGTCATCATGGACCGGTTTTCCCGGTAATCCGTATTTGAC (site TCGTCATCTGT) is 0

The recorded recombinant UMI read abundance (log10) for GTGCCTGCATGGACCGGTTTTCCCGGTAATCCGTATTTGGT (site GTGCGTGCTAC) is 0.00453

---

- ASSAY PROTOCOL: recombinant barcode read abundance after kanamycin selection (control-corrected) (log10(CPM+1)); higher = more efficient recombination; sequences stand for … in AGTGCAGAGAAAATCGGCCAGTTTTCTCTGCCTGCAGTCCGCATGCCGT…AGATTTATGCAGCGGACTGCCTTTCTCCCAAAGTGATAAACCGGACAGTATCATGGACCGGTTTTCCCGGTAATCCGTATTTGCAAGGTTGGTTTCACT; site = the 11-nt target
recombinant barcode read abundance (log10) vs 1: at or above is condition met, below is condition not met.

{"columns": ["MACROMOLECULE SEQUENCE", "CLASSIFICATION"],
 "data": [
  ["CCTCAGACTTGGGTTCTAACCTGTTGCGA (site CCTCAGACTTC)", "condition met"],
  ["GGAGGGGCTTGGGTTCTAACCTGTTGCCT (site GGAGGGGCTAG)", "condition met"],
  ["GATCGATCTTGGGTTCTAACCTGTTGCTT (site GATCGATCTAT)", "condition not met"],
  ["GACCACTCTTGGGTTCTAACCTGTTGCCT (site AACCACTCTAG)", "condition met"]
]}

Alright, here's another sequence for you.
# input Check the entry CTATTCCCTTGGGTTCTAACCTGTTGCCT (site CTATTCACTAG) : does recombinant barcode read abundance (log10) equal or exceed 1?
# output condition not met

---

- ASSAY PROTOCOL: recombinant barcode read abundance after kanamycin selection (control-corrected) (log10(CPM+1)); higher = more efficient recombination; sequences stand for … in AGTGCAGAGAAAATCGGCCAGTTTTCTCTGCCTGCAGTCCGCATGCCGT…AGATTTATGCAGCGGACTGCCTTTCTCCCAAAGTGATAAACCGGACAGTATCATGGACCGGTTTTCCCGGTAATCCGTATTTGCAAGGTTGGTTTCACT; site = the 11-nt target
Decision: recombinant barcode read abundance (log10) compared against 0.3; not below it gives true, below it gives false.

{"columns": ["MACROMOLECULE SEQUENCE", "CLASSIFICATION"],
 "data": [
  ["AGTTAGTCTTGGGTTCTAACCTGTTGCCA (site AGTCAGTCTTG)", "false"]
]}

# input Form field: recombinant barcode read abundance (log10) at least 0.3? Entry: GTAACCTCTTGGGTTCTAACCTGTTGCCA (site GTAACCTCTTG)
# output true

# input Determine whether measured recombinant barcode read abundance (log10) meets or exceeds 0.3 for CGCTGGCCTTGGGTTCTAACCTGTTGCTT (site CGCTGGCCTAA)
# output false

# input Test whether the sequence GGGCCTACTTGGGTTCTAACCTGTTGCTG (site GGGCCTACTAA) records recombinant barcode read abundance (log10) of 0.3 or higher.
# output false

# input Is it the case that TAAAAGTCTTGGGTTCTAACCTGTTGCCT (site TAAAAGGCTAG) has recombinant barcode read abundance (log10) reaching or exceeding 0.3?
# output false

# input Determine whether measured recombinant barcode read abundance (log10) meets or exceeds 0.3 for TAGCCTGCTTGGGTTCTAACCTGTTGCCT (site TAGTCTGCTAG)
# output false

---

// values below are reported recombinant barcode read abundance (log10)
- ASSAY PROTOCOL: recombinant barcode read abundance after kanamycin selection (control-corrected) (log10(CPM+1)); higher = more efficient recombination; sequences stand for … in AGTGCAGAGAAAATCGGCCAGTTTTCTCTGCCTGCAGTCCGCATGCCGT…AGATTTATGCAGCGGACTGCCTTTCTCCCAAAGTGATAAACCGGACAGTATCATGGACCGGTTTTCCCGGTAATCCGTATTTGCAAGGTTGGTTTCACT; site = the 11-nt target
Give the figure by itself; no unit, no explanation.

Example sequences with recorded recombinant barcode read abundance (log10):
{"columns": ["MACROMOLECULE SEQUENCE", "OBSERVED"],
 "data": [
  ["GCGGGTCCTTGGGTTCTAACCTGTTGCGT (site GCTGCTCCTAC)", 0.0517],
  ["TGTACGACTTGGGTTCTAACCTGTTGCCT (site TGTACGTCTAA)", 0.0793],
  ["CTCCGACCTTGGGTTCTAACCTGTTGCTT (site CTCCGCCCTAA)", 0.0228],
  ["CACCTGTCTTGGGTTCTAACCTGTTGCCG (site CACCTGACTCG)", 0.151],
  ["CCGCTGTCTTGGGTTCTAACCTGTTGCCT (site CCGCTGTCTAG)", 0.394],
  ["CACTCTCCTTGGGTTCTAACCTGTTGCCT (site CACTCTCCTAT)", 0.00896],
  ["TATTTGCCTTGGGTTCTAACCTGTTGCTG (site GCACCTGCTAG)", 0.183],
  ["CCGTGCCCTTGGGTTCTAACCTGTTGCGT (site CCGTGCCCTAC)", 1.92]
]}

Per the record, GAGTTGCCTTGGGTTCTAACCTGTTGCCT (site GCGTTGCCTAG) has recombinant barcode read abundance (log10) of 0.107

Entry GTCGCGCCTTGGGTTCTAACCTGTTGCCT (site GTCGCGACTAG) — recorded recombinant barcode read abundance (log10) = 0.221

Measured recombinant barcode read abundance (log10) of ACGGACCCTTGGGTTCTAACCTGTTGCAT (site ACGGACCCTAT) : 2.82

Lab note: measured recombinant barcode read abundance (log10) of AGCTTAGCTTGGGTTCTAACCTGTTGCCC (site AGCTTAGCTGG) was 0.395
